Data origin, for the record: PubChem BioAssay

experiment: E. coli growth modulation, two-sided OD650, primary screen, E. coli filamentation project, strain DRC41, 24 h (AID 1093); conditions: OD650, 24 h, higher = more signal, called active from +8 up or from −8 down;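 further: MC1000 strain lacking acrAB efflux and sulA so SOS filamentation is blocked; test concentration not given here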
compounds and their reported z-score
The answer should be a number; do not append a unit.

• CC1CC/C=C\[C@H]2OC34C=CCN(c5ccc6ccccc6c5)C(=O)[C@H]3N(C(CO)C(C)C)C(=O)[C@@H]4C2C(=O)O1 (some centres not stated) = -0.578
• CCOC(=O)C[C@H]1[C@H](OC(=O)c2ccccc2-c2ccccc2)[C@@H](NC(=O)c2ccc3ccccc3n2)c2cc(OCCCO)ccc2N1C(=O)c1ccc2ccccc2n1 = 0.597

[Q] Quote z-score reported for C=CC[C@H](OC(=O)Nc1ccc(OC)cc1)c1ccc(O)c2ccccc12 please.
[A] 0.364

[Q] Supply recorded z-score for O=C1NC(=O)C2C1C=CC(C(O)c1cc(C(F)(F)F)cc(C(F)(F)F)c1)N2Nc1ccc(Cl)cc1Cl (configuration not stated) here.
[A] -2.34

[Q] Find the measured z-score of CN(C)C(=O)[C@@]1(Cc2ccccc2N=[N+]=[N-])COC(c2ccc(OCCCO)cc2)=N1 and report it.
[A] 1.84

[Q] Please list z-score recorded for the compound NCCCCCCNC(=O)[C@H]1C[C@H]2C(=O)N[C@@H](Cc3ccccc3)C(=O)N2[C@H]1c1ccc(O)cc1
[A] 0.933

[Q] Find the measured z-score of O=C1C[C@]2(c3ccc([N+](=O)[O-])cc3)C(=O)N(Cc3ccccc3)c3cc(CO)ccc3[C@H]2N1CC12CC3CC(CC(C3)C1)C2 and report it.
[A] 0.64

---

assay: Plasmodium falciparum growth inhibition, primary screen, strain 3D7, DAPI fluorescence, 100 nL (AID 1184);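 further: parasites grown inside human red blood cells in medium with human serum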; settings: P. falciparum 3D7 growth, 3 d, higher = more signal
Category | rule: reported z-score within range, see class A (below -2), class B (-2 to below -0.4), class C (-0.4 or more)

Some solved cases for reference:
• C=C1C2CC3C(=C4C(CO[C@@H]4[C@H]4CCCN4S(=O)(=O)c4ccccc4[N+](=O)[O-])C4C(=O)N(C)C(=O)C34)CC2C(=O)N1C (stereo partly drawn) = class C
• CC(C)CCC[C@@H](C)[C@H]1CC[C@@]2(C)C3=C(CC[C@]12C)[C@@]1(C)CC[C@H](OC(=O)c2ccc(Br)cc2)C(C)(C)C1CC3 (stereo partly drawn) = class C
• [N-]=[N+]=NCc1ccccc1C[C@@]1(C(=O)NCCN2CCOCC2)N=C(c2ccc(OCCCO)cc2)O[C@@H]1c1ccccc1N=[N+]=[N-] = class A
• CCC[C@@H]1C[C@@]1(CCC)[C@@H](NP(=O)(c1ccccc1)c1ccccc1)c1ccc(Cl)cc1 = class B
• COc1cc(CO)cc(I)c1O[C@H]1C=C(C(=O)NCCO)C[C@@H](N(CC2CCCCC2)C(=O)c2ccc(C(F)(F)F)cc2)[C@@H]1O = class C
• COC(=O)[C@H](Cc1ccccc1)N1CC(/C=C/C2CC2)=C[C@@H]1[C@@H](O)Cc1ccccc1 = class B
• COC(=O)[C@]1(CCS(=O)(=O)c2ccccc2)N=C(c2ccc(OCCCO)cc2)O[C@@H]1c1ccccc1CN=[N+]=[N-] = class A
• Cc1c(NC(=O)/C(C#N)=C/C=C/c2ccccc2[N+](=O)[O-])c(=O)n(-c2ccccc2)n1C = class B
• O=C1c2ccccc2[C@@]2(Cc3ccccc3N(C3CC3)C2=O)[C@H](c2ccc(CO)cc2)N1C1CCCCC1 = class C
• C=CCNC(=O)[C@@H]1[C@H]2C(=O)O[C@H](c3ccccc3)[C@H](c3ccccc3)N2[C@H](c2ccccc2OCCO)[C@@]12C(=O)N(C(=O)OCCOC)c1ccc(C#CC3=CCCCC3)cc12 = class A

[Q] Categorize the following entry: COCCCNC(=O)[C@]1(Cc2ccccc2CN=[N+]=[N-])N=C(c2ccc(OCCCO)cc2)O[C@@H]1c1ccccc1
[A] class A

[Q] For this compound, which bin applies? CN(C)CCCN1C(=O)[C@@]2(c3ccc([N+](=O)[O-])cc3)CC(=O)N(CC34CC5CC(CC(C5)C3)C4)[C@@H]2c2ccc(CO)cc21
[A] class B

[Q] Input C=CCOC(=O)[C@@H]1[C@H]2C(=O)O[C@H](c3ccccc3)[C@H](c3ccccc3)N2[C@H](c2ccc(OCCOC(=O)[C@H]3C[C@H]4C(=O)N[C@@H](CCCCN(C)C)C(=O)N4[C@H]3c3cccc(OCCO)c3)cc2)[C@@]12C(=O)Nc1ccc(I)cc12 ; output its category
[A] class B

---

experiment: mitochondrial membrane potential change in A549 cells, profiling panel, cell-based, JC-1 fluorescence, basal, 24 h, 100 nL (AID 1138); conditions: higher = more signal;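 further: A549 lung adenocarcinoma cells under basal conditions with no added stimulus; test concentration not given here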
outcome measure: z-score
In your answer, state the number alone without any accompanying words.

[Q] Could you please provide reported z-score for C=C(CCCC)C(=O)CC[C@@H](OC(=O)c1ccccc1-c1ccccc1C(=O)O)c1cccc(OCCO)c1 ? Thanks!
[A] 0.317

[Q] Check the records and state z-score for COc1ccc([Si](C)(C)[C@H]2[C@H](CCn3cc([C@H](O)c4ccccc4)nn3)O[C@@]3(C(=O)N(Cc4ccc(N5CCOC5=O)cc4)c4ccccc43)[C@@H]2C)cc1
[A] 1.26

[Q] Please list z-score recorded for the compound CCCCN1CC=CC23O[C@@H]4/C=C\CCC(C)OC(=O)C4[C@H]2C(=O)N(CCCCCCO)[C@@H]3C1=O (stereo partly specified)
[A] 0.376

[Q] # return recorded z-score for input O=C1NC(=O)C2C1C=CC(C(O)c1ccc3c(c1)OCO3)N2Nc1ccccn1 (stereo unspecified)
[A] 0.992

[Q] Please report the measured z-score for CC(C)C(=C=CC[C@@H](O)c1ccccc1OCCO)C[C@@H](O)COCc1ccccc1
[A] 1.88

---

assay: mitochondrial membrane potential change in A549 cells, profiling panel, cell-based, JC-1 fluorescence, basal, 24 h, 100 nL (AID 1138); settings: higher = more signal;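 further: A549 lung adenocarcinoma cells under basal conditions with no added stimulus; test concentration not given here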
Listing of recorded z-score by entry.
No unit in the answer, only the number.

- CC1CC/C=C\[C@H]2OC34C=CCN(C(C)C)C(=O)[C@H]3N(CCCCCO)C(=O)[C@@H]4C2C(=O)O1 (some centres not stated): 1.68
- [N-]=[N+]=NCc1ccccc1[C@H]1OC(c2ccc(OCCCO)cc2)=N[C@@]1(CCS(=O)(=O)c1ccccc1)C(N)=O: -1.14
- CCN(CC)c1ccc(N2CC=CC34O[C@@H]5/C=C\CCC(C)OC(=O)C5[C@H]3C(=O)N(CCO)[C@@H]4C2=O)cc1 (some centres not stated): 0.431
- COC(=O)[C@@]1(Cc2ccc(OC)cc2)[C@H]2c3cc(C(=O)N(C)C)n(CCc4c[nH]c5ccc(O)cc45)c3C[C@H]2CN1C(=O)c1ccccc1: 0.74

[Q] Kindly indicate its recorded z-score. Item: [N-]=[N+]=NCc1ccccc1C[C@@]1(C(N)=O)N=C(c2ccc(OCCCO)cc2)O[C@@H]1c1ccccc1CN=[N+]=[N-]
[A] 1.45

[Q] Hello, please tell me recorded z-score for this one: CC(C)(C)N1CC=CC23O[C@@H]4C=CCOC(=O)[C@@H]4[C@H]2C(=O)N(CCCO)[C@@H]3C1=O (some centres not stated)
[A] -0.908

[Q] Provide measured z-score value, entry: CCOC(=O)[C@H]1C/C=C/C[C@H](C(=O)OCC)C(=O)O[C@H]2[C@@H](OC)O[C@H](CO)[C@@H](OC(=O)CCc3ccccc3)[C@@H]2OC1=O
[A] 3.06

---

# z-score listing for each entry below
experiment: basal 3T3-L1 adipocyte mitochondrial potential changes, profiling panel, cell-based, JC-1 fluorescence, 3T3-L1 adipocytes, 24 h, 100 nL compound (AID 1168); details: JC-1 mitochondrial fluorescence, higher = more signal, called active from +8 up or from −8 down; further: test concentration not given here
In your answer, state the number alone without any accompanying words.

- CC(C)OC(=O)CC(=O)CC(O)c1cccc(C#N)c1 (configuration not stated): 0.837
- COCCOC(=O)N1C(=O)[C@@]2(c3cc(C#CCC(C(=O)OC)C(=O)OC)ccc31)[C@H](c1ccc(OCCO)cc1)N1[C@H](c3ccccc3)[C@H](c3ccccc3)OC(=O)[C@H]1[C@@H]2C(=O)N1CCN(c2ncccn2)CC1: 0.436
- CCOC(=O)C1=CC[C@@H](c2ccccc2C(F)(F)F)N(S(=O)(=O)c2ccc(C)cc2)C1: 0.0742
- CC(C)C(CO)N1C(=O)[C@]2(C)C3C(=O)OCCC/C=C\[C@H]3OC23C=CCN(c2ccc(Cl)cc2)C(=O)[C@@H]13 (some centres not stated): -0.52
- CN(C)CCCNC(=O)[C@@H]1c2ccccc2C(=O)N(CC23CC4CC(CC(C4)C2)C3)[C@H]1c1ccc(CO)cc1: -0.211
- C=C(CCCC)/C(=C/C[C@@H](OC(=O)c1ccncc1)c1cccc(OCCO)c1)c1cnc2ccccc2c1: -0.891

[Q] Give the reported value of z-score for this record: COc1cc2c(cc1OC)CN(C(=O)[C@@H]1[C@H]3C(=O)O[C@H](c4ccccc4)[C@H](c4ccccc4)N3[C@H](c3ccccc3OCCO)[C@@]13C(=O)Nc1ccc(C#CC4(O)CCCCCC4)cc13)CC2
[A] 1.3
